- assay-target: Voltage-dependent L-type calcium channel subunit alpha-1C (Rattus norvegicus, UniProt P22002)
- Sequence (P22002 whole entry): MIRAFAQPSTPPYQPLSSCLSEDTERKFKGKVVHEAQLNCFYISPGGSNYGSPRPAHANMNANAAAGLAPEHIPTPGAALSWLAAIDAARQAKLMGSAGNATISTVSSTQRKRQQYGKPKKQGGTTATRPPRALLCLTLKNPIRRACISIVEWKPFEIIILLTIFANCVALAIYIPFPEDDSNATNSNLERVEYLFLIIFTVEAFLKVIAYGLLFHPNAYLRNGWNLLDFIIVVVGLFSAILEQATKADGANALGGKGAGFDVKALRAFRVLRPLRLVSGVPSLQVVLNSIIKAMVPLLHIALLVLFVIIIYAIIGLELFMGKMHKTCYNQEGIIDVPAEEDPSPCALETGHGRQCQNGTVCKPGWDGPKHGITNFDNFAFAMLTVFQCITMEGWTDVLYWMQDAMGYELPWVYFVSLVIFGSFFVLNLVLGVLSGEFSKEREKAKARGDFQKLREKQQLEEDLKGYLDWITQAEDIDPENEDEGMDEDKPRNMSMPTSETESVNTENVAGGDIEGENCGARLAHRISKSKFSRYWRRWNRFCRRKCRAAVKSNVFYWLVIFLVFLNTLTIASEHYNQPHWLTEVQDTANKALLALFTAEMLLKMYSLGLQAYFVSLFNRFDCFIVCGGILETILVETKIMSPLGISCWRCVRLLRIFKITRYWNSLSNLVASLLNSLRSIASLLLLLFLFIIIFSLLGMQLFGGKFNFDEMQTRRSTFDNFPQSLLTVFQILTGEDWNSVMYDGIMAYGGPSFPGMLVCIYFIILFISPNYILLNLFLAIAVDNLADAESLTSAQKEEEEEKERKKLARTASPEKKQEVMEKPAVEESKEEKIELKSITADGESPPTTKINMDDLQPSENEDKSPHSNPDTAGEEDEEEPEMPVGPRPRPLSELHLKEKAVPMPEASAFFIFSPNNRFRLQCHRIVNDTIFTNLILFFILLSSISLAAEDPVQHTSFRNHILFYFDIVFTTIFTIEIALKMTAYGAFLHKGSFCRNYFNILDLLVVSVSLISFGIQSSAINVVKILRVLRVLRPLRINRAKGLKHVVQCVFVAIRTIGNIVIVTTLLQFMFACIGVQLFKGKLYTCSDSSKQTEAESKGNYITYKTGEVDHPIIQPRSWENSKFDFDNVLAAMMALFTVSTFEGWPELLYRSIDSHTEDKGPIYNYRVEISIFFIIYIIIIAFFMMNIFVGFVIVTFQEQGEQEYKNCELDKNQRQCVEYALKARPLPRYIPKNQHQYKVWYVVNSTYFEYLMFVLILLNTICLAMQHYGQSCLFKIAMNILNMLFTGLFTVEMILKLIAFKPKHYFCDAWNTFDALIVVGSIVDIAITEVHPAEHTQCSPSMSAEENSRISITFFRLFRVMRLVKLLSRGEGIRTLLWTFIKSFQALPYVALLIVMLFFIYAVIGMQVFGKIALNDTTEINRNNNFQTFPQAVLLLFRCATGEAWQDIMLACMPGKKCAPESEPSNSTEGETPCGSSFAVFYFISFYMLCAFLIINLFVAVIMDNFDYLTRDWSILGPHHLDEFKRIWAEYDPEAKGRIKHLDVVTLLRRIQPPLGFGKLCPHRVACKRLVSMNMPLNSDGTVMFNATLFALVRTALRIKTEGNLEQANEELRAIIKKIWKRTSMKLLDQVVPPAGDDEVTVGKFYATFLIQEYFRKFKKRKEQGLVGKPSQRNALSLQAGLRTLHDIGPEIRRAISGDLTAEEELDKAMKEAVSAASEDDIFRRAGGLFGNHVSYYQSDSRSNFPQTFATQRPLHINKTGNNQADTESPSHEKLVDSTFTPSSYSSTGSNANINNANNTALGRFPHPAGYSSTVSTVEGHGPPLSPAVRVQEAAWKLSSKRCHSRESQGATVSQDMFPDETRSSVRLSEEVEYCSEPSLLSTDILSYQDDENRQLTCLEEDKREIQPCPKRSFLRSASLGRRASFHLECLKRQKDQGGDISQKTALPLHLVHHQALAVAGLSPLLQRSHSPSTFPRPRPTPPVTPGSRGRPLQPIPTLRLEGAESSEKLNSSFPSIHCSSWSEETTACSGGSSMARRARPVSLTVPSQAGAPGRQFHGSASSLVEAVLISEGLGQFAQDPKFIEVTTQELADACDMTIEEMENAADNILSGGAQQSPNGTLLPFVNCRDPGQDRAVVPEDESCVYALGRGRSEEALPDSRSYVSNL
- protocol-details: Inhibition of [3H]diltiazem binding to Sprague-Dawley rat cardiomyocytes
quantity-measured: Ki (µM)
// units = µM; emit number, no label

Assign Ki to the following record: O=S(=O)(c1ccc(Cl)cc1)N(C1CCNCC1)C1CC1 3.02

----------
- Species: Cavia porcellus
- protocol-details: Cardiac activity in guinea pig heart measured as decrease in left ventricular pressure at 1 uM relative to control
- Assay type: functional
- Set-up: scale not given: the % may be the effect or the level left
The threshold is 10%. Values of Activity beneath it are tagged fulfilled; values meeting or exceeding it are tagged not fulfilled.

O=S(=O)(c1ccc(Cl)cc1)N1CCC[C@@H]1c1cccs1 | fulfilled
COC(=O)c1c(-c2c(Cl)cccc2Cl)noc1C | not fulfilled
O=S(=O)(c1ccc(Cl)cc1)N(C1CCNCC1)C1CC1 | not fulfilled
CCOC1(c2ccc(Br)cc2)SC=C(C)n2c1noc2=O (stereo unspecified) | fulfilled
COc1ccc([C@@H]2Sc3ccccc3N(CCN(C)C)C(=O)[C@@H]2OC(C)=O)cc1 | not fulfilled

Turning now to a further record.
Is 10% strictly greater than the compound's reported Activity? compound: CC(=O)c1ccccc1N1C(=O)CSCC1=O not fulfilled
